biological target: TRAILR2 receptor on the surface of human tumor cells (human, UniProt O14763 56-440); test: cell-based or functional assay
In this section, each of the binders is paired with its reported eff. (efficiency %), cytotoxic effect on Reh cells.
Give a bare numeral; the unit % is implied.

* Zapadcine-3c (antibody, V domains shown, MMAE coupled through linker MC-VC-PAB by thiol conventional coupling, cleavable; positions not given) VH: QVQLVQSGSELKKPGASVKVSCKASGYTFTDFSMNWVRQAPGQGLEWMGWINTETGEPTYADDFKGRFVFSLDTSVSTAYLQISSLKAEDTAVYYCARIDYWGQGTTVTVSS VL: DIVMTQSPLSLPVTPGEPASISCRSSQSLVHSNGNTYLHWYLQKPGQSPQLLIYKVSNRFSGVPDRFSGSGSGTDFTLKISRVEAEDVGVYYCFQSTHVPHTFGQGTKLEIKR | 98.6
* Zapadcine-3d (antibody, V domains shown, MMAE coupled through linker MC by thiol conventional coupling, non-cleavable; positions not given) VH: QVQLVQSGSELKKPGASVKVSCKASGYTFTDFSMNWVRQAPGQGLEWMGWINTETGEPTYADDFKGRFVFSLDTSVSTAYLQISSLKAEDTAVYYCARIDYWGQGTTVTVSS VL: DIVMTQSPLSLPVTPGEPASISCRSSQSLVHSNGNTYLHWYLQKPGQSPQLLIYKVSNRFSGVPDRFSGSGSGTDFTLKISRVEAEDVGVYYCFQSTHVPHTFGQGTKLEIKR | 98.8

From here, focus on the item given below.
Exam item: Identify the reported eff. (efficiency %), cytotoxic effect on Reh cells for the following entry. Zapadcine-3a (antibody, V domains shown, MMAE coupled through linker PY-VC-PAB by thiol bridge coupling, cleavable; positions not given) VH: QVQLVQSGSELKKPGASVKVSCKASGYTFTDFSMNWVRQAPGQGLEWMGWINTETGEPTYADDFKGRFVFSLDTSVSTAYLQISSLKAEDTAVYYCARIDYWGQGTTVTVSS VL: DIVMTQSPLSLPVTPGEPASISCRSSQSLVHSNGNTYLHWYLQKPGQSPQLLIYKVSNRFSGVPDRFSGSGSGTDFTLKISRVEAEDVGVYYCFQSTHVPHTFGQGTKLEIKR
Marked response: 89.8
